Hey, just so you know, these numbers are from the RNAGym collection of RNA variant scans (doi:10.1073/pnas.2313332121).

B1: TPR t1 (parent)
chain: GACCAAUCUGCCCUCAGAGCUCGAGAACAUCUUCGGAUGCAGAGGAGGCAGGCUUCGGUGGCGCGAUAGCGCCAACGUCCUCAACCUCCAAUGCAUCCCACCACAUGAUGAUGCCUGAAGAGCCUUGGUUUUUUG

- Variants of: B1
- experiment: polymerase ribozyme fitness, log enrichment relative to wild type (log ratio); higher = more active; in vitro selection for triplet polymerase activity
Decision: polymerase ribozyme fitness (log ratio) compared against -2; not below it gives yes (1), below it gives no (0).

Decide: is the reported value of polymerase ribozyme fitness (log ratio) for G10U C28G A46U G52A G63A U87C equal to or greater than -2?
no (0)

Identify whether the reported polymerase ribozyme fitness (log ratio) of the following variant is -2 or greater: U54C G61C
no (0)

Reported polymerase ribozyme fitness (log ratio) at or above -2? C11U C53U A84G
yes (1)

// inclusive: polymerase ribozyme fitness (log ratio) at least -2? input: C20A C49A U81A C104U G120C U133A G135U
no (0)

Decide: is the reported value of polymerase ribozyme fitness (log ratio) for A18G C34A equal to or greater than -2?
no (0)

Given the entry C11A G57A C73A C88G , answer whether its polymerase ribozyme fitness (log ratio) meets or surpasses -2.
no (0)

Decide: polymerase ribozyme fitness (log ratio) of G19C G93A C104U U112C >= -2?
yes (1)

Decide: is the reported value of polymerase ribozyme fitness (log ratio) for U9C G17A A18G G69U G113U equal to or greater than -2?
no (0)

Evaluate C8G C73A G120C : polymerase ribozyme fitness (log ratio) at minimum -2?
yes (1)

Hi team, for C11G C15G G113U , is the recorded polymerase ribozyme fitness (log ratio) at or above -2?
no (0)

Identify whether the reported polymerase ribozyme fitness (log ratio) of the following variant is -2 or greater: C34A U133A
no (0)

API: above_or_equal(metric=polymerase ribozyme fitness (log ratio), cutoff=-2) for item C8G C89A G117A U129A
no (0)

Is polymerase ribozyme fitness (log ratio) for U7C G61A U81G U116G C124A at or above -2?
no (0)

Would you say A24G G47A shows polymerase ribozyme fitness (log ratio) at minimum -2?
no (0)

Check if polymerase ribozyme fitness (log ratio) >= -2 (inclusive). Item: A5U G44A A46U C56U U126G U133A
no (0)

Is reported polymerase ribozyme fitness (log ratio) greater than or equal to -2 here: C40G G110A U132A
yes (1)
